Organism: Rattus norvegicus
Assay: DrugMatrix - Regimen: Daily Repeat
Format: toxicity, organism-based, Sprague-Dawley
Design: regimen Daily Repeat, gender Male, age 6-8 weeks
Conditions: in vivo, po, 2000 mg/kg, 72 h, tissue Plasma, route oral GAVAGE, dose level High, time 3 day, vehicle .5 % CMC
MEASURED PROPERTY: ALBUMIN

Some solved entries appear below for comparison.
[
  {
    "COMPOUND": "CC(C)[C@H](N)C(=O)OCCOCn1cnc2c(=O)[nH]c(N)nc21",
    "ALBUMIN": "4 G/DL"
  },
  {
    "COMPOUND": "CC(=O)O[C@]1(C(C)=O)CC[C@H]2[C@@H]3C=C(Cl)C4=CC(=O)CC[C@]4(C)[C@H]3CC[C@@]21C [CHLORMADINONE ACETATE]",
    "ALBUMIN": "4.57 G/DL"
  },
  {
    "COMPOUND": "NCC(=O)O",
    "ALBUMIN": "3.53 G/DL"
  }
]

Then there is this compound:
Lab note: measured ALBUMIN of NCCCC[C@H](N[C@@H](CCc1ccccc1)C(=O)O)C(=O)N1CCC[C@H]1C(=O)O [LISINOPRIL ANHYDROUS] was 4.03 G/DL
